The reported numbers originate from ChEMBL document CHEMBL1152418.

test: Cytotoxicity against human PBMC by XTT assay; type: cell-based; conditions: PBMC (peripheral blood mononuclear cells)
// classify: if (CC50 < 2 mM) Yes else No

* O=C(O)c1cn([C@@H]2O[C@H](CO)[C@@H](O)[C@H]2O)c2ccc(Cl)cc2c1=O | Yes
* CCOC(=O)c1cn(Cc2ccccc2)c2ccc(Cl)cc2c1=O | Yes
* CCOC(=O)c1c[nH]c2ccc(Cl)cc2c1=O | Yes
* NNC(=O)c1cn(COCCO)c2ccc(F)cc2c1=O | Yes
* CCOC(=O)c1cn(COCCO)c2ccc(F)cc2c1=O | Yes
* O=C(O)c1cn(Cc2ccccc2)c2ccc(Cl)cc2c1=O | Yes
* Cc1cn([C@H]2C[C@H](N=[N+]=[N-])[C@@H](CO)O2)c(=O)[nH]c1=O | Yes
* O=C(NCc1ccccc1)c1cn(COCCO)c2ccc(F)cc2c1=O | No
* CCOC(=O)c1cn(COCCO)c2ccc(Cl)cc2c1=O | Yes
* NNC(=O)c1c[nH]c2ccc(Cl)cc2c1=O | Yes
* O=C(NCc1ccccc1)c1c[nH]c2ccc(Cl)cc2c1=O | Yes
* O=C(NCc1ccccc1)c1cn(COCCO)c2ccc(Cl)cc2c1=O | No
* NNC(=O)c1cn(COCCO)c2ccc(Cl)cc2c1=O | No

----------
Listing of entries alongside the reported selectivity ratio.
assay: Selectivity index, ratio of CC50 for human PBMC cells to EC50 for HIV1; type: toxicity, cell-based; details: read-out: Ratio CC50/EC50
Test readout: selectivity ratio

* CCOC(=O)c1cn(Cc2ccccc2)c2ccc(Cl)cc2c1=O | 18
* CCOC(=O)c1cn(COCCO)c2ccc(F)cc2c1=O | 18
* O=C(NCc1ccccc1)c1cn(COCCO)c2ccc(F)cc2c1=O | 1000
* CCOC(=O)c1c[nH]c2ccc(Cl)cc2c1=O | 39
* O=C(O)c1cn([C@@H]2O[C@H](CO)[C@@H](O)[C@H]2O)c2ccc(Cl)cc2c1=O | 1130
* CCOC(=O)c1cn(COCCO)c2ccc(Cl)cc2c1=O | 36
* NNC(=O)c1cn(COCCO)c2ccc(F)cc2c1=O | 275
* O=C(NCc1ccccc1)c1c[nH]c2ccc(Cl)cc2c1=O | 26
* O=C(NCc1ccccc1)c1cn(COCCO)c2ccc(Cl)cc2c1=O | 711
* Cc1cn([C@H]2C[C@H](N=[N+]=[N-])[C@@H](CO)O2)c(=O)[nH]c1=O | 2520
* NNC(=O)c1cn(COCCO)c2ccc(Cl)cc2c1=O | 960
* NNC(=O)c1c[nH]c2ccc(Cl)cc2c1=O | 14
* O=C(O)c1cn(Cc2ccccc2)c2ccc(Cl)cc2c1=O | 22
